Every entry's value here was drawn from DBAASP.

As an illustration, consider measured MIC for compounds on Staphylococcus aureus USA 300.
Property Measured: MIC

| Compound | Target Entity | Observed Measurement |
| --- | --- | --- |
| CC[C@H](C)[C@H](N)C(=O)N[C@@H](CCCN=C(N)N)C(=O)NCC(=O)N[C@@H](Cc1ccc(O)cc1)C(=O)N[C@@H](CCCCN)C(=O)NCC(=O)NCC(=O)N[C@@H](Cc1ccc(O)cc1)C(=O)N[C@@H](CS)C(=O)N[C@@H](CCCCN)C(N)=O | Staphylococcus aureus USA 300 | ≥ 112 µM |
| CSCC[C@H](NC(=O)[C@H](Cc1cnc[nH]1)NC(=O)[C@H](CCCCN)NC(=O)[C@H](CC(C)C)NC(=O)[C@H](CCCCN)NC(=O)[C@@H](N)CCCN=C(N)N)C(=O)N[C@@H](CCCN=C(N)N)C(=O)N[C@@H](Cc1ccccc1)C(=O)O | Staphylococcus aureus USA 300 | ≥ 100 µM |
| NCCCCC(N)C(=O)NC(Cc1ccc(O)cc1)C(=O)NC(CCCN=C(N)N)C(=O)O (centres undefined) | Staphylococcus aureus USA 300 | ≥ 100 µM |
| CC[C@H](C)[C@H](NC(=O)CN)C(=O)N[C@H](C(=O)N[C@@H](CCCCN)C(=O)N[C@H](C(=O)N[C@H](C(=O)N[C@@H](CCCCN)C(=O)N[C@@H](CO)C(=O)N[C@@H](CC(C)C)C(=O)N[C@H](C(=O)N[C@@H](CCC(=O)O)C(=O)N[C@@H](CCC(N)=O)C(=O)N[C@@H](Cc1ccccc1)C(=O)N[C@H](C(=O)NCC(=O)N[C@@H](CCCCN)C(=O)O)[C@@H](C)O)[C@@H](C)CC)[C@@H](C)CC)C(C)C)[C@@H](C)CC | Staphylococcus aureus USA 300 | ≥ 64 µM |
